System: Scopulariopsis Brevicaulis (ATCC 36840)
Response field label: string, one of true (1) (MIC strictly below 1 µg/mL) or false (0).

Some solved cases for reference:
{"SMILES NOTATION": "O=C(NCC1CCCCC1)c1ccc2cccnc2c1O", "QUALITATIVE LABEL": "false (0)"}
{"SMILES NOTATION": "O=C(NCc1ccco1)c1ccc2cccnc2c1O", "QUALITATIVE LABEL": "true (1)"}
{"SMILES NOTATION": "O=C(NCc1cccs1)c1ccc2cccnc2c1O", "QUALITATIVE LABEL": "true (1)"}
{"SMILES NOTATION": "COc1ccc(NC(=O)c2ccc3cccnc3c2O)cc1", "QUALITATIVE LABEL": "true (1)"}
{"SMILES NOTATION": "O=C(NCc1ccc(C(F)(F)F)cc1)c1ccc2cccnc2c1O", "QUALITATIVE LABEL": "false (0)"}
{"SMILES NOTATION": "O=C(Nc1ccccc1)c1ccc2cccnc2c1O", "QUALITATIVE LABEL": "false (0)"}
{"SMILES NOTATION": "O=C(NCc1ccccc1)c1ccc2cccnc2c1O", "QUALITATIVE LABEL": "true (1)"}

Continue with the compound presented below.
Consider O=C(NCc1ccc(Cl)cc1)c1ccc2cccnc2c1O . Does its MIC lie strictly below 1 µg/mL?
true (1)

====

System: Aspergillus Niger (ATCC 16404)
MEASUREMENT KIND: MIC (µg/mL)
The response must be a number in µg/mL with no trailing unit.

{"SMILES NOTATION": "O=C(NCc1ccccc1)c1ccc2cccnc2c1O", "ASSAY TARGET": "Aspergillus Niger (ATCC 16404)", "MIC, µg/mL": 0.18}
{"SMILES NOTATION": "O=C(NCc1cccnc1)c1ccc2cccnc2c1O", "ASSAY TARGET": "Aspergillus Niger (ATCC 16404)", "MIC, µg/mL": 1}
{"SMILES NOTATION": "O=C(NCc1ccccc1O)c1ccc2cccnc2c1O", "ASSAY TARGET": "Aspergillus Niger (ATCC 16404)", "MIC, µg/mL": 0.25}
{"SMILES NOTATION": "O=C(NCc1ccco1)c1ccc2cccnc2c1O", "ASSAY TARGET": "Aspergillus Niger (ATCC 16404)", "MIC, µg/mL": 1}
{"SMILES NOTATION": "O=C(Nc1ccccc1)c1ccc2cccnc2c1O", "ASSAY TARGET": "Aspergillus Niger (ATCC 16404)", "MIC, µg/mL": 0.5}

Turning now to a further record.
Please report MIC with Aspergillus Niger (ATCC 16404) for item O=C(NCc1ccc(Cl)cc1)c1ccc2cccnc2c1O .
0.35

====

System: Aspergillus Niger (ATCC 16404)
For each record, check the reported MIC: if it is below 0.5 µg/mL write Fulfilled, else write Not fulfilled.

Take a look at these entries with their results.
{"SMILES NOTATION": "O=C(NCC1CCCCC1)c1ccc2cccnc2c1O", "QUALITATIVE LABEL": "Fulfilled"}
{"SMILES NOTATION": "COc1ccc(CNC(=O)c2ccc3cccnc3c2O)cc1", "QUALITATIVE LABEL": "Not fulfilled"}

State whether 0.5 µg/mL exceeds MIC recorded for O=C(NCc1cccs1)c1ccc2cccnc2c1O .
Fulfilled

Say whether its MIC is strictly beneath 0.5 µg/mL. Entry: COc1ccc(NC(=O)c2ccc3cccnc3c2O)cc1
Not fulfilled

====

Tested on: Candida Glabrata (ATCC 90030)
Assay: Assessment of the mechanism of action: antifungal activity with or without 100 μM Fe3+
Type: cell-based
Details: 100 μM FeCl3 in the test medium, OD at 540 nm
MEASUREMENT KIND: Effect of Fe3+ on the antifungal activity (percent inhibition of fungal growth)

{"COMPOUND": "O=C(NCc1ccccc1)c1ccc2ncccc2c1 [NiK-29298]", "ENDPOINT VALUE": "not inhibited"}
{"COMPOUND": "O=C(NCc1ccc(OCc2ccccc2)cc1)c1ccc2ncccc2c1 [Example E8]", "ENDPOINT VALUE": "not inhibited"}

====

This document collects MIC values reported for Scopulariopsis Brevicaulis (ATCC 36840).
The reply should be a number in µg/mL, with the unit left off.

Check the records and state MIC for COc1ccc(CNC(=O)c2ccc3cccnc3c2O)cc1 [Example 11]
1

Please indicate MIC recorded for O=C(NCc1cccnc1)c1ccc2cccnc2c1O [Example 10]
1

Return reported MIC. Input compound: O=C(NCc1ccccc1O)c1ccc2cccnc2c1O [Example 8]
1

Entry source: patent US8969380B2
